molecular target: SaCas9 (Staphylococcus aureus); experiment: Strand displacement assay, SaCas9 primary screen; type: biochemical; conditions: SaCas9 primary screen, weaker potential hits, replicate 2
Returns true if the recorded Normalized Zscore Rep 2 is greater than or equal to 0.2, and false otherwise.

Look over these answered cases.
1) Nc1c(C(=O)NCC2CCCO2)sc(=S)n1-c1ccc(Cl)cc1 (centres unmarked); true
2) O=C1CC(c2ccc(O)c(O)c2)c2c(nc(SCc3ccccc3)[nH]c2=O)N1 (centres unmarked); false
3) Nc1c(C(=O)N2CCCC2)sc(=S)n1Cc1ccccc1; true
4) COc1ccc(-c2nc(N)s[n+]2-c2ccccc2)cc1; true

Q. Item `CS(=O)(=O)Nc1cnc(N2CCC(CCN3CCOCC3)CC2)c(C(=O)O)c1` with Normalized Zscore Rep 2 of 0.2 or above?
A. true

Q. Item `CCN(Cc1ccccc1)c1ncc(NS(=O)(=O)c2ccc(F)cc2)cc1C(=O)O` with Normalized Zscore Rep 2 of 0.2 or above?
A. false

Q. Item O=C1CC(NC(=O)c2ccc(Cl)cc2)C(=O)N1 (centres unmarked) with Normalized Zscore Rep 2 of 0.2 or above?
A. true

Q. Item `CN1C(C(=O)Nc2sc3c(c2C(N)=O)CCCC3)=CC(c2ccc(F)cc2)=NS1(=O)=O` with Normalized Zscore Rep 2 of 0.2 or above?
A. false

Q. Item `c1ccc(Cc2nn3c(-c4cccnc4)nnc3s2)cc1` with Normalized Zscore Rep 2 of 0.2 or above?
A. true

Q. Item `O=c1oc2c(O)c(O)ccc2c2c1CCC2` with Normalized Zscore Rep 2 of 0.2 or above?
A. true

Q. Item `COc1ccc2cc3c(N)nn(C(=O)c4ccc(F)cc4)c3nc2c1` with Normalized Zscore Rep 2 of 0.2 or above?
A. true

Q. Item `CCN(Cc1ccccc1)c1ccc(NS(=O)(=O)c2ccccc2)cc1C(=O)O` with Normalized Zscore Rep 2 of 0.2 or above?
A. false

Q. Item `CCN(Cc1ccccc1)c1ccc(NS(=O)(=O)c2cc(C)ccc2C)cc1C(=O)O` with Normalized Zscore Rep 2 of 0.2 or above?
A. false

* * *

Examples of compounds with documented Auto Zscore Rep 1 follow.
Biological target: UniProt J7RUA5
Sequence (J7RUA5 1-1053): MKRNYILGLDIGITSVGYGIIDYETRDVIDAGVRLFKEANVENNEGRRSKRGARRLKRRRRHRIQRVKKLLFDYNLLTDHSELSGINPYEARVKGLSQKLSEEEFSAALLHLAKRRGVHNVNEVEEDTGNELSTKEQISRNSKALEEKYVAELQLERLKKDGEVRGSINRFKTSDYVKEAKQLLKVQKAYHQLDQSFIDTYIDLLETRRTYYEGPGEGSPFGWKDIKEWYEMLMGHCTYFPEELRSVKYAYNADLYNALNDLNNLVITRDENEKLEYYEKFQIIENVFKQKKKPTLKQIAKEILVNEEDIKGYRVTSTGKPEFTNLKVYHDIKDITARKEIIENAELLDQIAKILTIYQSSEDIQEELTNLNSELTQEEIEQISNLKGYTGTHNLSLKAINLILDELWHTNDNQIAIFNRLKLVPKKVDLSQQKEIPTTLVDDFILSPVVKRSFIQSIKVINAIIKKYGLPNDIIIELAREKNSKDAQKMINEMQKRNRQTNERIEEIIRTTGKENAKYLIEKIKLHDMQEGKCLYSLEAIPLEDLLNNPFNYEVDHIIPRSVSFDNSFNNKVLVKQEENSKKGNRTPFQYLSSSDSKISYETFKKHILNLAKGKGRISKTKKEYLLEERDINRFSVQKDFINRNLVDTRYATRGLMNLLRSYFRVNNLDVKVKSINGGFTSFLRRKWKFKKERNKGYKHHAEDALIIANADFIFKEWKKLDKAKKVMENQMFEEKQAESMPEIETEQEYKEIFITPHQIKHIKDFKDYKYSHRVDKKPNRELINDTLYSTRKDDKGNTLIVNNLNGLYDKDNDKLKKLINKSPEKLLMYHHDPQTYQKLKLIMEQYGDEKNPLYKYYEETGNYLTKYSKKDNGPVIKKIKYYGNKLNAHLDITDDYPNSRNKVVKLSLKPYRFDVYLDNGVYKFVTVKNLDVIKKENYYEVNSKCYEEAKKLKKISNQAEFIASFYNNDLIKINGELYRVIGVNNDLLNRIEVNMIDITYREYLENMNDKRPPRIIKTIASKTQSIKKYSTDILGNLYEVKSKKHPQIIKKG
Assay: Strand displacement assay, SaCas9 primary screen
Format: biochemical
Conditions: SaCas9 primary screen, Auto Zscore, replicate 1
No unit in the answer, only the number.

1. CCCN1CCN(c2ccc(C(=O)O)cc2NC(=O)c2ccccc2Cl)CC1; −1.483
2. CCS(=O)(=O)Nc1cnc(N(CC(C)C)CC(C)C)c(C(=O)O)c1; 1.978
3. COc1ccc2cc3c(N)nn(C(=O)c4ccncc4)c3nc2c1; −0.6022
4. Cc1cccc(Nc2nc(C(N)=O)c(NC(=O)c3ccc(F)cc3)s2)c1C; 2.51

Q. Would you mind telling me what Auto Zscore Rep 1 value was observed for O=C1CC(c2ccc(O)c(O)c2)c2c(nc(SCc3ccc(Cl)cc3)[nH]c2=O)N1 (centres unmarked) ?
A. −2.7

Q. Would you mind telling me what Auto Zscore Rep 1 value was observed for `CCCCN(CC)c1ncc(NS(=O)(=O)CC)cc1C(=O)O` ?
A. 0.7951

Q. Would you mind telling me what Auto Zscore Rep 1 value was observed for `CN(C)c1ncc(NS(=O)(=O)c2cc(F)ccc2F)cc1C(=O)O` ?
A. 2.553

Q. Would you mind telling me what Auto Zscore Rep 1 value was observed for Cn1c(=O)c2c(-c3ccccc3)n3c(c2n(C)c1=O)C(c1ccc(O)c(O)c1)Nc1ccccc1-3 (centres unmarked) ?
A. −1.668
